Experimental details: Lipophilicity, log D of the compound by chromatography
Format: physicochemical
I'd be grateful if you could share measured chromatographic logD for these entries.
Hey, just send me the number, nothing else.

Input line: Reported chromatographic logD for C[C@H](NC(=O)C(C)(F)F)[C@H](Oc1ccc2c(cnn2-c2cccc(C(=O)N[C@@H]3CCS(=O)(=O)C3)c2)c1)c1ccc2c(c1)OCCO2 : what is it?
Output line: 3.6

Input line: May I ask what chromatographic logD has been recorded for C[C@H](NC(=O)C(C)(F)F)[C@H](Oc1ccc2c(cnn2-c2cccc(C(=O)N3CCC[C@@H]3C(N)=O)c2)c1)c1ccc2c(c1)OCOC2 ?
Output line: 2.9

Input line: Consider the molecule C[C@H](NC(=O)C(C)(F)F)[C@H](Oc1ccc2c(cnn2-c2cccc(C(=O)N[C@H]3CCOC3)c2)c1)c1ccc2c(c1)OCCO2 and give its measured chromatographic logD.
Output line: 3.7

Input line: Fill blank: measured chromatographic logD of the molecule C[C@H](NC(=O)C(F)(F)F)[C@H](Oc1ccc2c(cnn2-c2ccc(F)cc2)c1)c1ccc2c(c1)OCCO2 is ____.
Output line: 5.7

Input line: What value of measured chromatographic logD is listed for C[C@H](NC(=O)C(C)(F)F)[C@H](Oc1ccc2c(cnn2-c2ccc(F)cc2)c1)c1ccc2c(c1)COCO2 ?
Output line: 5.4

Input line: Entry C[C@H](NC(=O)C(C)(F)F)[C@H](Oc1ccc2c(cnn2-c2cccc(C(=O)N[C@@H]3CCOC3=O)c2)c1)c1ccc2c(c1)OCCO2 has what chromatographic logD?
Output line: 3.6

Input line: Which value of chromatographic logD has been reported for C[C@H](NC(=O)C(C)(F)F)[C@H](Oc1ccc2c(cnn2-c2cccc(C(=O)NC3CCS(=O)(=O)C3)c2)c1)c1ccccc1 (some centres not stated) in the records?
Output line: 3.8

###

Experimental details: Solubility of the compound in phosphate buffer at pH 7.4 using liquid sample at 20 degreeC
Format: physicochemical
Decision: solubility >= 1 µM yields fulfilled, all other cases yield not fulfilled.

Input line: Quick check, solubility >= 1 µM? C[C@H](NC(=O)C(C)(F)F)[C@H](Oc1ccc2c(cnn2-c2cccc(C(=O)N3CCC[C@@H]3C(N)=O)c2)c1)c1ccc2c(c1)OCOC2
Output line: fulfilled

Input line: Determine whether measured solubility meets or exceeds 1 µM for C[C@H](NC(=O)C(C)(F)F)[C@H](Oc1ccc2c(cnn2-c2cccc(C(=O)N[C@H]3CCOC3)c2)c1)c1ccc2c(c1)OCOC2
Output line: not fulfilled

Input line: Dear colleague, could you confirm whether C[C@H](NC(=O)C(C)(F)F)[C@H](Oc1ccc2c(cnn2-c2cccc(C(=O)N[C@H]3CCOC3)c2)c1)c1ccc2c(c1)OCCO2 has solubility at or above 1 µM?
Output line: fulfilled

Input line: Test whether the molecule C[C@H](NC(=O)C(C)(F)F)[C@H](Oc1ccc2c(cnn2-c2cccc(C(=O)NCc3cccnc3)c2)c1)c1ccc2c(c1)OCOC2 records solubility of 1 µM or higher.
Output line: not fulfilled

Input line: Is the recorded value of solubility equal to or greater than 1 µM for this molecule? C[C@H](NC(=O)C(C)(F)F)[C@H](Oc1ccc2c(cnn2-c2cccc(C(=O)N[C@H]3CCS(=O)(=O)C3)c2)c1)c1ccc2c(c1)OCCO2
Output line: not fulfilled

Input line: Entry C[C@H](NC(=O)C(C)(F)F)[C@H](Oc1ccc2c(cnn2-c2cccc(C(=O)N[C@@H]3CCS(=O)(=O)C3)c2)c1)c1ccc2c(c1)OCCO2 : is its solubility no less than 1 µM?
Output line: not fulfilled

Input line: Decide: is the reported value of solubility for C[C@H](NC(=O)C(C)(F)F)[C@H](Oc1ccc2c(cnn2-c2cccc(C(=O)N[C@@H]3CCOC3=O)c2)c1)c1ccccc1 equal to or greater than 1 µM?
Output line: fulfilled

Input line: Evaluate C[C@H](NC(=O)C(C)(F)F)[C@H](Oc1ccc2c(cnn2-c2cccc(C(=O)N[C@@H]3CCOC3=O)c2)c1)c1ccc2c(c1)OCCO2 : solubility at minimum 1 µM?
Output line: not fulfilled

Input line: Evaluate C[C@H](NC(=O)C(C)(F)F)[C@H](Oc1ccc2c(cnn2-c2cccc(C(=O)N3CCC[C@@H]3C(N)=O)c2)c1)c1ccccc1 : solubility at minimum 1 µM?
Output line: fulfilled

Input line: Determine whether this molecule has solubility no lower than 1 µM: C[C@H](NC(=O)C(C)(F)F)[C@H](Oc1ccc2c(cnn2-c2cccc(C(=O)N3CCC[C@H]3C(N)=O)c2)c1)c1ccccc1
Output line: fulfilled
